- system.tested: T1, biotinylated hOX40L (R&D Systems, biotinylated in house) (human, UniProt P23510 51-183, biotinylated with Sulfo-NHS-LC-Biotin, sites not stated)
- T1 construct: same bought protein as m10, biotinylated; also called biotinylated OX40L
- T1 sequence: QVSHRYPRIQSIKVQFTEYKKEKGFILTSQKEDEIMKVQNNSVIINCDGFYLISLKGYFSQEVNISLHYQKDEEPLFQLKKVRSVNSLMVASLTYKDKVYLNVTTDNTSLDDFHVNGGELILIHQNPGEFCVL
- experiment.description: hOX40L/hOX40 AlphaScreen, assay 3, heated at Tm+10 C
outcome.measure: pIC50
Notebook: values listed as pIC50 are -log10 of the concentration (mol/L).

Consider the following illustrative entries.
binder	numeric.result
OX40L030 (VHH, not shown: small tags and cut ends) VHH: DVQLVESGGGLVQAGGSLRLSCAASRSIGRLDRMGWYRHRTGEPRELVATITGGSSINYGDFVKGRFTISIDNAKNTVYLQMNNLKPEDTAVYYCNFNKYVTSRDTWGQGTQVTVSS	9.84
OX40L082 (VHH, not shown: small tags and cut ends) VHH: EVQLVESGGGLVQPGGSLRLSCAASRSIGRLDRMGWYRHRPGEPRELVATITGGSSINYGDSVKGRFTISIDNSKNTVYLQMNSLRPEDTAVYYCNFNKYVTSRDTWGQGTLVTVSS	9.85
OX40L056 (VHH, not shown: small tags and cut ends) VHH: DVQLVESGGGLVQPGGSLRLSCAASRSIGRLDRMGWYRHRPGKPRELVATITGGSSINYADSVKGRFTISRDNSKNTVYLQMNSLRPEDTAVYYCNFNKYVTSRDTWGQGTLVTVSS	8.95

// switching to the query binder
// OX40L040 (VHH, not shown: small tags and cut ends) VHH: DVQLVESGGGLVQPGGSLRLSCAASRSIGRLDRMGWYRHRTGEPRELVATITGGSSINYGDFVKGRFTISRDNSKNTVYLQMNSLRPEDTAVYYCNFNKYVTSRDTWGQGTLVTVSS : pIC50 value = 10.09
